# GI50 values compiled below
Tested on: T47D
ASSAY REMARKS: NCI tumour cell line growth inhibition, 48 h
The source made the active and inactive calls. Rule as the data show it: active = GI50 up to about 1.1 µM and inactive = higher.

O=C(O)C(Cc1ccccc1-c1ccccc1)C(=O)O
> 100 µM (inactive)
CCN(CC)CC(=O)Nc1c(C(N)=O)nnn1Cc1cc(Cl)c(C(=O)c2ccc(Cl)cc2)c(Cl)c1
15.9 µM (inactive)
O=[N+]([O-])c1ccc2c3c1[C@@H]1O[C@@H]1c1cccc(c1-3)[C@@H]1O[C@H]21
3.35 µM (inactive)
NC(C(=O)O)C(N)C(=O)O (stereo unspecified)
> 100 µM (inactive)

Query block: Give the measured GI50 of CSC(=Nc1nnc(-c2ccc([N+](=O)[O-])cc2)s1)SC .
Result block: 17.8 µM (inactive)

Query block: Give the measured GI50 of COc1cc(NC(C)=O)ccc1C(=O)N/N=C/c1ccc(Cl)cc1Cl .
Result block: 16.3 µM (inactive)

Query block: Give the measured GI50 of CC1(C)C(=O)N(O)C(C)(C)N1O .
Result block: > 10 µM (inactive)

Query block: Give the measured GI50 of N#Cc1c(N2CCCC2)nsc1Nc1ccccc1 .
Result block: > 100 µM (inactive)

Query block: Give the measured GI50 of CCS(=O)(=O)c1c2cc(OC)ccc2nc2ccc(OC)cc12 .
Result block: > 100 µM (inactive)

Query block: Give the measured GI50 of CC1=CC(=O)/C(=C/N2C(=O)CNC2=S)C(=O)O1 .
Result block: > 100 µM (inactive)

Query block: Give the measured GI50 of [N-]=[N+]=Nc1c(Cl)c(Cl)nc2ccccc12 .
Result block: 68.1 µM (inactive)

* * *

Tested on: HCC 2998
ASSAY REMARKS: NCI tumour cell line growth inhibition, 48 h
Activity calls are given as the source filed them. No stated cut-off is given here; in the data, active = GI50 up to about 1.1 µM and inactive = higher.
Parameter call: string, one of class 1 for active, class 0 for inactive

CN(C)CCNCc1ccc2c(-c3ccccc3)nc3cc(Cl)c(Cl)cc3n12
class 0
C/C(=C\COP(=O)(O)OP(=O)(O)O)CC/C=C(\C)CNc1c(F)c(F)c(F)c(F)c1F
class 0
C/C(=N\NC(N)=S)c1cc(C)c(C)cc1C
class 0
CC1=C(C(=O)Nc2ccccc2C)C(c2ccccc2)C(C(=O)Nc2ccccc2C)=C(C)N1
class 0

Switching to the query record.
Query block: In this assay, the call recorded for CC1=CC2CC(C)=C(CC[C@]3(C)CC[C@H]([C@@H](C)C(=O)O)OO3)C(C)(C)C2CC1 (stereo not given in full) was what?
Result block: class 1

* * *

System: SR
ASSAY REMARKS: NCI tumour cell line growth inhibition, 48 h
Active and inactive are the calls of the source. Cut-off read from the data, not from the text of the source: active = GI50 up to about 1.1 µM and inactive = higher.
Parameter call: string, one of 1 (yes) = active, 0 (no) = inactive

Below are worked cases with known answers.
CCCCNc1nc2ccccc2c2c1ncn2CC(C)C
0 (no)
COCN(CCC1=CCCCC1)C(=O)OC
0 (no)
O=C(O)Cc1ccccc1CCc1ccccc1Cl
0 (no)
O=c1c(F)cn(Cc2c(Cl)cccc2Cl)c(=O)n1Cc1c(Cl)cccc1Cl
0 (no)
CN(C)CCNc1ccc2c(=O)n(CCN(C)C)c(=O)n3c4ccc([N+](=O)[O-])cc4c(=O)c1c23
1 (yes)
C1CCN2CC3CCCN4CCCC(C2C1)C34 (stereo not given)
0 (no)
Cc1cc2[nH]c3[nH]c(=O)[nH]c(=O)c3c2cc1C
0 (no)
C=C(C)[C@H]1C2=CC(C)=C(O2)[C@@H](O)[C@H](C(=C)C)CCC2=C[C@H]1OC2=O [KALLOLIDE A]
0 (no)

Query block: In this assay, the call recorded for NC(=O)CSc1c2cc(O)ccc2nc2ccc(O)cc12 was what?
Result block: 0 (no)

Query block: In this assay, the call recorded for COC(=O)[C@]12CCC(C)[C@H](C)[C@H]1C1=CCC3[C@@]4(C)CC[C@H](OC(C)=O)C(C)(C)C4CC[C@@]3(C)C1(C)C(O)C2 (stereo not given in full) was what?
Result block: 0 (no)
